assay: in vitro; conditions: human
metric_name: CC50

Could you tell me which CC50 is on file for NC(=O)c1ncn([C@@H]2O[C@H](CO)[C@@H](O)[C@H]2O)n1 [Ribavirin, reference compound] ?
> 100 µM

###

test system: HIV-2 CBL20 H9; experiment: microbe, parasite or virus in culture; details: Human immunodeficiency virus 2, PBMC
metric_name: IC50 (nM)
Note: unit nM is implicit; provide only the numeric part.

What reported IC50 corresponds to NCC(=O)Nc1ccc(-n2nc(C(F)(F)F)cc2-c2ccc3c(ccc4ccccc43)c2)cc1 on HIV-2 CBL20 H9?
510

###

tested on: HIV-1 isolate 4736_4; assay: microbe, parasite or virus in culture; details: Human immunodeficiency virus 1, PBMC, read-out: IC50
metric_name: IC90 (nM)
A number alone suffices; assume nM.

Known IC90 results, listed for orientation:
NCC(=O)Nc1ccc(-n2nc(C(F)(F)F)cc2-c2ccc3c(ccc4ccccc43)c2)cc1    2240
Cc1cn([C@H]2C[C@H](N=[N+]=[N-])[C@@H](CO)O2)c(=O)[nH]c1=O    20.6

Below: the item to evaluate.
Requested read-out: IC90. Entry: COc1cc2c(cc1Cc1cccc(Cl)c1F)c(=O)c(C(=O)O)cn2[C@H](CO)C(C)C
251

###

assay: in vitro; conditions: African green monkey, CC50 (neutral red)
metric_name: CC50 (µg/mL)
Please give a number only; it is taken to be in µg/mL.

Data request, read-out CC50, for NCC(=O)Nc1ccc(-n2nc(C(F)(F)F)cc2-c2ccc3c(ccc4ccccc43)c2)cc1
2.4

###

test system: DENV-1; test: Virus yield reduction assay by qRT-PCR in Vero cells; assay type: cell-based; conditions: Dengue virus, DENV1, Vero, 48 h, read-out: Antiviral Activity IC50
metric_name: IC50 (µM)
Numbers only here, please. The scale is µM.

Looking for the measured IC50 of NCC(=O)Nc1ccc(-n2nc(C(F)(F)F)cc2-c2ccc3c(ccc4ccccc43)c2)cc1 , can you help?
0.64

###

system: Vero; conditions: listed as Pichinde Virus An 4763; visual
metric_name: CC50 (visual) (µg/mL)
Give the number; µg/mL is assumed, so skip it.

I have this compound here, NCC(=O)Nc1ccc(-n2nc(C(F)(F)F)cc2-c2ccc3c(ccc4ccccc43)c2)cc1 , and I need its recorded CC50 (visual).
3.2

###

test system: Junin virus strains Candid-1, XJC13 and IV4454; assay: in vitro; conditions: African green monkey (Vero), human (A549)
metric_name: selectivity ratio

Hello, I am looking for reported selectivity ratio with Junin virus strains Candid-1, XJC13 and IV4454 for NCC(=O)Nc1ccc(-n2nc(C(F)(F)F)cc2-c2ccc3c(ccc4ccccc43)c2)cc1 . Could you help?
35.1 to 129

###

tested on: Vero; conditions: listed as Pichinde Virus An 4763; neutral red
metric_name: CC50 (neutral red)

// fetch Vero CC50 (neutral red) for NCC(=O)Nc1ccc(-n2nc(C(F)(F)F)cc2-c2ccc3c(ccc4ccccc43)c2)cc1
2.8 µg/mL

###

tested on: HIV-1 isolate NL4-3; assay: microbe, parasite or virus in culture; conditions: Human immunodeficiency virus 1, NL43, PBMC, read-out: IC50
metric_name: IC90 (nM)
Quick note: give the figure in nM, leave out the unit.

Below, 3 compounds whose answers are already recorded.
CC(C)Nc1cccnc1N1CCN(C(=O)c2cc3cc(NS(C)(=O)=O)ccc3[nH]2)CC1    57.6
Cc1ccnc2c1NC(=O)c1cccnc1N2C1CC1    227
CC(C)c1nc(CN(C)C(=O)N[C@H](C(=O)N[C@@H](Cc2ccccc2)C[C@H](O)[C@H](Cc2ccccc2)NC(=O)OCc2cncs2)C(C)C)cs1    92.3

Form field: IC90 recorded for NCC(=O)Nc1ccc(-n2nc(C(F)(F)F)cc2-c2ccc3c(ccc4ccccc43)c2)cc1 with HIV-1 isolate NL4-3 (enter value)
2170
